Assign Activity to each entry below.
# SYSTEM: Glutamate NMDA receptor; Grin1/Grin2c (Rattus norvegicus) (UniProt P35439+Q00961)
# TEST_METHOD_NOTES: Positive allosteric modulation of recombinant rat GluN1/GluN2C receptor expressed in xenopus laevis oocyte assessed as potentiation of glutamate and glycine-induced current response at 10 uM at holding potential -40mV by two electrode voltage clamp method relative to control
# ASSAY_CONTEXT: 30 uM, in the assay text read “at 30 uM” for “at 10 uM”
Numbers only, in %.

Below, 3 compounds whose answers are already recorded.
1. CCOc1ccc(OCC2c3ccc(OC(C)C)cc3CCN2C(=O)c2cccc(Cl)c2)cc1 (stereo not given) ... 126
2. CCOc1ccc(OCC2c3ccc(OC4CCCC4)cc3CCN2C(=O)c2cccc(Cl)c2)cc1 (stereo not given) ... 187
3. COc1ccc(OCC2c3ccc(OC(C)C)cc3CCN2C(=O)c2cccc(Br)c2)cc1 (stereo not given) ... 270

Batch request: Activity per item, same order as input.
1. CCOc1ccc(OCC2c3ccc(OC(C)C)cc3CCN2C(=O)c2ccc(Cl)c(Cl)c2)cc1 (stereo not given)
2. CCOc1ccc(OCC2c3ccc(OC(C)C)cc3CCN2C(=O)c2cc(Cl)cc(Cl)c2)cc1 (stereo not given)

1. 150
2. 97

====

# SYSTEM: Ionotropic glutamate receptor NMDA 1/2D (Rattus norvegicus) (UniProt P35439+Q62645)
# TEST_METHOD_NOTES: Positive allosteric modulation of recombinant rat GluN1/GluN2D receptor expressed in xenopus laevis oocyte assessed as potentiation of glutamate and glycine-induced current response at 30 uM at holding potential -40mV by two electrode voltage clamp method relative to control
Assign Activity to each entry below.

Below, 5 compounds whose answers are already recorded.
1. COc1ccc(OCC2c3ccc(N4CCOCC4)cc3CCN2C(=O)c2cccc(Cl)c2)cc1 (centres undefined) ... 231%
2. CCC(CC)Oc1ccc2c(c1)CCN(C(=O)c1cccc(Cl)c1)C2COc1ccc(OC)cc1 (centres undefined) ... 381%
3. COc1ccc(OCC2c3ccc(OC(C)C)cc3CCN2C(=O)c2ccc(Cl)cc2)cc1 (centres undefined) ... 244%
4. COc1ccc(OCC2c3ccc(N(C)C(C)C)cc3CCN2C(=O)c2cccc(Cl)c2)cc1 (centres undefined) ... 500%
5. CCOc1ccc(OCC2c3ccc(OC(C)C)cc3CCN2C(=O)c2cccc(F)c2)cc1 (centres undefined) ... 91%

Batch request: Activity per item, same order as input.
1. COc1ccc(OCC2c3ccc(NC(C)C)cc3CCN2C(=O)c2cccc(Cl)c2)cc1 (centres undefined)
2. COc1ccc(OCC2c3ccc(OC(C)C)cc3CCN2C(=O)c2cccc([N+](=O)[O-])c2)cc1 (centres undefined)
3. CCOc1ccc(OCC2c3ccc(OCC)cc3CCN2C(=O)c2cccc(Cl)c2)cc1 (centres undefined)
4. CCOc1ccc(OCC2c3ccc(OC(C)C)cc3CCN2C(=O)c2ccccc2)cc1 (centres undefined)

333%
335%
75%
69%

====

# SYSTEM: Ionotropic glutamate receptor NMDA 1/2D (Rattus norvegicus, UniProt P35439+Q62645)
# TEST_METHOD_NOTES: Positive allosteric modulation of recombinant rat GluN1/GluN2D receptor expressed in xenopus laevis oocyte assessed as potentiation of glutamate and glycine-induced current response at holding potential -40mV by two electrode voltage clamp method
RESULT_TYPE: EC50 (nM)
Give bare numbers, in nM.

Below, 6 compounds whose answers are already recorded.
1. COc1ccc(OCC2c3ccc(OC(C)C)cc3CCN2C(=O)c2cccc(C(F)(F)F)c2)cc1 (centres undefined) ... 2700
2. CC(C)Oc1ccc2c(c1)CCN(C(=O)c1cccc(Cl)c1)C2COc1ccc(OC(F)(F)F)cc1 (centres undefined) ... 1700
3. COc1ccc(OCC2c3ccc(N4CCCCC4)cc3CCN2C(=O)c2cccc(Cl)c2)cc1 (centres undefined) ... 4000
4. COc1ccc(OC[C@@H]2c3ccc(OC(C)C)cc3CCN2C(=S)c2cccc(Cl)c2)cc1 ... 480
5. COc1ccc(OCC2c3ccc(OC(C)C)cc3CCN2C(=O)c2cccc(Cl)c2)cc1 (centres undefined) ... 3000
6. COc1ccc(OCC2c3ccc(N(C)C(C)C)cc3CCN2C(=O)c2cccc(Cl)c2)cc1 (centres undefined) ... 4000

Batch request: EC50 per item, same order as input.
1. COc1cccc(OCC2c3ccc(OC(C)C)cc3CCN2C(=O)c2cccc(Cl)c2)c1 (centres undefined)
2. COc1ccc(OC[C@H]2c3ccc(OC(C)C)cc3CCN2C(=S)c2cccc(Cl)c2)cc1
3. COc1ccc(OCC2c3ccc(OC(C)C)cc3CCN2C(=O)c2cccc(Br)c2)cc1 (centres undefined)

1: 5400; 2: 2000; 3: 2600

====

# SYSTEM: Ionotropic glutamate receptor NMDA 1/2D (Rattus norvegicus) (UniProt P35439+Q62645)
# TEST_METHOD_NOTES: Positive allosteric modulation of recombinant rat GluN1/GluN2D receptor expressed in xenopus laevis oocyte assessed as potentiation of glutamate and glycine-induced current response at 30 uM at holding potential -40mV by two electrode voltage clamp method relative to control
Assign Activity to each entry below.
Give bare numbers, in %.

Below, 8 compounds whose answers are already recorded.
1) COc1ccc(OCC2c3ccc(OC(C)C)cc3CCN2C(=O)c2cccc(I)c2)cc1 (centres undefined) ... 408
2) COc1ccc(OCC2c3ccc(N(C)C)cc3CCN2C(=O)c2cccc(Br)c2)cc1 (centres undefined) ... 307
3) CCOc1ccc(OCC2c3ccc(OC(C)C)cc3CCN2C(=O)c2cccc(Br)c2)cc1 (centres undefined) ... 98
4) COc1ccc(OCC2c3ccc(N(C)C)cc3CCN2C(=O)c2cccc(Cl)c2)cc1 (centres undefined) ... 322
5) CCOc1ccc(OCC2c3ccc(OCC(C)C)cc3CCN2C(=O)c2cccc(F)c2)cc1 (centres undefined) ... 351
6) CC(C)Oc1ccc(OCC2c3ccc(OC(C)C)cc3CCN2C(=O)c2cccc(Cl)c2)cc1 (centres undefined) ... 111
7) CCOc1ccc(OCC2c3ccc(OC(C)C)cc3CCN2C(=O)c2ccc(F)c(F)c2)cc1 (centres undefined) ... 133
8) CCOc1ccc(OCC2c3ccc(OC(C)C)cc3CCN2C(=O)c2cccc(-c3ccccc3)c2)cc1 (centres undefined) ... 92

Shifting focus to the compound that follows.
Using known records, supply Activity for CCOc1ccc(OCC2c3ccc(OC4CCCC4)cc3CCN2C(=O)c2cccc(F)c2)cc1 (centres undefined)
161

====

# SYSTEM: Glutamate NMDA receptor; Grin1/Grin2b (Rattus norvegicus) (UniProt P35439+Q00960)
# TEST_METHOD_NOTES: Positive allosteric modulation of recombinant rat GluN1/GluN2B receptor expressed in xenopus laevis oocyte assessed as compound concentration required to show two fold increase in glutamate and glycine-induced current response at holding potential -40mV by two electrode voltage clamp method
The threshold is 2 µM. Values of CD beneath it are tagged TRUE; values meeting or exceeding it are tagged FALSE.

# TODO verify CD < 2 µM strictly for this molecule: COc1ccc(OC[C@@H]2c3ccc(OC(C)C)cc3CCN2C(=S)c2cccc(Cl)c2)cc1
TRUE

# TODO verify CD < 2 µM strictly for this molecule: COc1ccc(OC[C@@H]2c3ccc(OC(C)C)cc3CCN2C(=O)c2cccc(Cl)c2)cc1
FALSE

# TODO verify CD < 2 µM strictly for this molecule: COc1ccc(OCC2c3ccc(OC(C)C)cc3CCN2C(=O)c2cccc(Cl)c2)cc1 (stereo not given)
FALSE

# TODO verify CD < 2 µM strictly for this molecule: COc1ccc(OCC2c3ccc(OC(C)C)cc3CCN2C(=S)c2cccc(Cl)c2)cc1 (stereo not given)
FALSE

# TODO verify CD < 2 µM strictly for this molecule: CCOc1ccc(OC[C@@H]2c3ccc(OC(C)C)cc3CCN2C(=S)c2cccc(F)c2)cc1
TRUE

====

# Test system: Brain
# TEST_METHOD_NOTES: Drug uptake in C57Bl/6 mouse brain at 10 mg/kg, ip after 15 to 30 mins by LC/MS/MS analysis
# Type: ADME, organism-based
# ASSAY_CONTEXT: in vivo, read-out: Drug uptake
RESULT_TYPE: concentration (nM)
Give bare numbers, in nM.

Using known records, supply concentration for COc1ccc(OCC2c3ccc(OC(C)C)cc3CCN2C(=O)c2cccc(Cl)c2)cc1 (stereo unspecified)
700

====

Assign Emax to each entry below.
# SYSTEM: Glutamate NMDA receptor; Grin1/Grin2c (Rattus norvegicus) (UniProt P35439+Q00961)
# TEST_METHOD_NOTES: Positive allosteric modulation of recombinant rat GluN1/GluN2C receptor expressed in xenopus laevis oocyte assessed as potentiation of glutamate and glycine-induced current response at 30 uM at holding potential -40mV by two electrode voltage clamp method relative to control
Form entry: enter the amount, then its unit.

Below, 3 compounds whose answers are already recorded.
1. COc1ccc(OCC2c3ccc(NC(C)C)cc3CCN2C(=O)c2cccc(Cl)c2)cc1 (centres undefined) ... 261%
2. CCOc1ccc(OCC2c3ccc(OC(C)C)cc3CCN2C(=O)c2ccc(F)c(Cl)c2)cc1 (centres undefined) ... 162%
3. COc1ccc(OCC2c3ccc(OC(C)C)cc3CCN2C(=O)c2cccc(I)c2)cc1 (centres undefined) ... 310%

Shifting focus to the compound that follows.
Using known records, supply Emax for CCOc1ccc(OC[C@@H]2c3ccc(OC(C)C)cc3CCN2C(=S)c2cccc(F)c2)cc1
154%
